system: carrageenan-induced paw edoema; assay: Carrageenan-induced paw edoema in mice; conditions: mice, po 10 µmol/kg b.wt., 2 h after carrageenan, Mean ± SEM, n = 5
Marks after values point to notes of the source that are not given here.
measurement-kind: Thickness of edoema 2h

Input: # query: Thickness of edoema 2h of entry Cc1ccc(-c2cc(C(F)(F)F)nn2-c2ccc(S(N)(=O)=O)cc2)cc1 [Celecoxib, reference compound]
Output: 0.89 ± 0.01^c mm

Input: Please give the result for O=C(c1cc(/N=N/c2ccc(S(=O)(=O)Nc3ncccn3)cc2)ccc1O)N1CCOCC1 too.
Output: 1.03 ± 0.03 mm

Input: Another compound: O=C(O)Cc1ccccc1Nc1c(Cl)cccc1Cl [Diclofenac sodium, reference compound]
Output: 1.06 ± 0.03^c mm

Input: Another compound: O=C(c1cc(/N=N/c2ccc(S(=O)(=O)Nc3ncccn3)cc2)ccc1O)N1CCCCC1
Output: 0.80 ± 0.01^c mm

Input: Try Cc1ccnc(NS(=O)(=O)c2ccc(/N=N/c3ccc(O)c(C(=O)N4CCOCC4)c3)cc2)n1 next.
Output: 0.89 ± 0.01^c mm

Input: Continue with CCCCNC(=O)c1cc(/N=N/c2ccc(S(=O)(=O)Nc3nccs3)cc2)ccc1O
Output: 0.95 ± 0.04 mm

Taken from paper PMC9225712.
